Molecular target: UniProtKB P00797
Test: in vitro inhibition of renin, radio immunoassay detection of Angiotensin I from an angiotensinogen-like substrate
Format: biochemical
Conditions: 10^-6 M concentration of test compound
From the text: The potent in vitro inhibition of the aspartyl protease renin was established using standard radio immunoassay techniques for the detection of Angiotensin I from an angiotensinogen-like substrate [Haber et al. (1969), J. Clin. Endocrinol. 29, 1349]. The results of these standard test procedures appears at the end of each Example of preparation of the relevant compound, as the percent inhibition of renin activity at […] concentration of test compound. […]
ASSAY ENDPOINT: % I, percent inhibition of renin activity (%)
Answer with a number only, understood to be in %.

Example compounds with recorded % I, percent inhibition of renin activity:
COC(=O)C(O)C(CC1CCCCC1)NC(=O)[C@H](Cc1c[nH]cn1)NC(=O)[C@H](Cc1ccccc1)N1C(=O)c2ccccc2C1=O (stereo partly drawn) | 9
COC(=O)C(O)C(CC1CCCCC1)NC(=O)[C@H](CC(C)C)NC(=O)[C@H](Cc1ccccc1)N1Cc2ccccc2C1=O (stereo partly drawn) | 97
COC(=O)C(O)C(CC1CCCCC1)NC(=O)[C@H](CC(C)C)NC(=O)[C@H](Cc1ccccc1)N1CC(C)(C)OC1=O (stereo partly drawn) | 86
CCCC[C@H](NC(=O)[C@H](Cc1ccccc1)N1Cc2ccccc2C1=O)C(=O)NC(CC1CCCCC1)C(O)C(=O)OC(C)C (stereo partly drawn) | 99
CC(C)C[C@H](NC(=O)[C@H](Cc1ccccc1)N1Cc2ccccc2C1=O)C(=O)NC(CC1CCCCC1)C(O)C(=O)OC(C)C (single isomer, unassigned) [Example 2 Diastereomer A] | 98

Now consider a different compound.
Ask: Form field - read-out: % I, percent inhibition of renin activity; system: UniProtKB P00797; submitted item: COC(=O)C(O)C(CC1CCCCC1)NC(=O)[C@H](CC(C)C)NC(=O)[C@H](Cc1ccccc1)N1C(=O)c2cccc3cccc(c23)C1=O (stereo partly drawn)
Reply: 74

---

Target: renin (Homo sapiens)
Sequence (P00797 67-406): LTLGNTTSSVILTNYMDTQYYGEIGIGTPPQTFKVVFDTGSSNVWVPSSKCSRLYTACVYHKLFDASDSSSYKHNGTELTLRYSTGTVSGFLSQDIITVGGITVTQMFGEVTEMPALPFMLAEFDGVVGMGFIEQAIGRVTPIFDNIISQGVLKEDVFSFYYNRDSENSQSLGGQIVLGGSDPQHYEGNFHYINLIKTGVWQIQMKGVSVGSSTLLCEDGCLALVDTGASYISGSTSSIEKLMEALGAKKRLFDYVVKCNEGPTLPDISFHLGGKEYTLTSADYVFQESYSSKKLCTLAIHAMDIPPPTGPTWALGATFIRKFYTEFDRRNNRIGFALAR
Assay: in vitro inhibition of renin, radio immunoassay detection of Angiotensin I from an angiotensinogen-like substrate
Format: biochemical
Details: 10^-6 M concentration of test compound
Below: a set of entries, each annotated with reported % I, percent inhibition of renin activity.
Returns: string containing the number followed by the unit.

CCC[C@H](NC(=O)[C@H](Cc1ccccc1)N1Cc2ccccc2C1=O)C(=O)NC(CC1CCCCC1)C(O)C(=O)OC(C)C (stereo partly drawn) | 99%
CC(C)C[C@H](NC(=O)[C@H](Cc1ccccc1)N1C[C@@H]2CCCN2C1=O)C(=O)NC(CC1CCCCC1)C(O)C(=O)OC(C)C (stereo partly drawn) | 91%
COC(=O)C(O)C(CC1CCCCC1)NC(=O)[C@H](CC(C)C)NC(=O)[C@H](Cc1ccccc1)N1C(=O)OC(C)(C)C1C (stereo partly drawn) | 76%
COC(=O)C(O)C(CC1CCCCC1)NC(=O)[C@H](CC(C)C)NC(=O)[C@H](Cc1ccccc1)N1Cc2ncccc2C1=O (stereo partly drawn) | 89%
COC(=O)C(O)C(CC1CCCCC1)NC(=O)[C@H](Cc1c[nH]cn1)NC(=O)[C@H](Cc1ccccc1)N1Cc2ccccc2C1=O (stereo partly drawn) | 84%

Ask: Tell me the measured % I, percent inhibition of renin activity of CC(C)OC(=O)C(O)C(CC1CCCCC1)NC(=O)[C@H](Cc1c[nH]cn1)NC(=O)[C@H](Cc1ccccc1)N1Cc2ccccc2C1=O (stereo partly drawn) , please.
Reply: 83%
